test: Quantitative High-Throughput drug screen in 47 multiple myeloma cell lines against the NCATS MIPE library collection: JIM3_ECACC cell viability assay (AID 1918963; note: nearly all actives have a fitted effect of over 35% in size); conditions: JIM3 myeloma viability, CellTiter-Glo ATP, 48 h; series mostly up to 45.8 µM
Results filed as inconclusive are left out. Activity calls are given as the source filed them. Calls come from the whole dose curve; as a rule, active = well fitted cell-killing curve with a large enough effect; inconclusive = small, poorly fitted or top-dose-only effect; inactive = no such curve, though single readings can be large or run the other way.
Classes used: active, inactive

chem-smiles	group-label
O=C(Cc1ccc(-c2ccc(OCCN3CCOCC3)cc2)cn1)NCc1ccccc1	active
CCC1=C[C@@H]2CN(C1)Cc1c([nH]c3ccccc13)[C@@](C(=O)OC)(c1cc3c(cc1OC)N(C)[C@@H]1[C@@](O)(C(=O)OC)[C@H](OC(C)=O)[C@]4(CC)C=CCN5CC[C@]31[C@@H]54)C2	active
Cn1cc(-c2[nH]c3cc(NC(=O)[C@H](N)C4CCCCC4)cc4c3c2C=NNC4=O)cn1	active
C=CCn1c(=O)c2cnc(Nc3ccc(N4CCN(C)CC4)cc3)nc2n1-c1cccc(C(C)(C)O)n1	active
COc1cccc2c(NCc3ccccc3)nc(-n3c(N)nc4ccccc43)nc12	active
C[C@@H]1COC(Nc2ccc3ncnc(Nc4ccc(OCc5nccs5)c(Cl)c4)c3c2)=N1	active
Nc1ncnc2c1c(-c1cnc3[nH]ccc3c1)nn2C1CCCC1	active
O=C(CCCCCCNC(=O)c1cnc(N(c2ccccc2)c2ccccc2)nc1)NO	active
Nc1cc(C(F)(F)F)c(-c2cc(N3CCOCC3)nc(N3CCOCC3)n2)cn1	active
Cc1coc2c1C(=O)C(=O)c1c-2ccc2c1CCCC2(C)C	active
Cc1cc(C(=O)N2CCN(c3cccc(Cl)c3)CC2)n(-c2ccccc2)n1	active
Cc1ccc(CN2CCNCC2)cc1NC(=O)CNc1ccc(F)c(F)c1	inactive
Cc1ccc(NC(=O)C2(c3ccc4c(c3)OC(F)(F)O4)CC2)nc1-c1cccc(C(=O)O)c1	active

* * *

assay: Quantitative High-Throughput drug screen in 47 multiple myeloma cell lines against the NCATS MIPE library collection: L363_DSMZ cell viability assay (AID 1918984); conditions: L363 myeloma viability, CellTiter-Glo ATP luminescence, 48 h; series mostly up to 45.8 µM; note: nearly all actives have a fitted effect of over 40% in size
Results filed as inconclusive are left out. Activity calls are given as the source filed them. The call rests on the fitted dose curve; in most records, active means well fitted cell-killing curve with a large enough effect; inconclusive means small, poorly fitted or top-dose-only effect, or effect the other way; inactive means no such curve, though single readings can be large or run the other way.
Classes used: active, inactive

compound	group-label
COc1ccc(C=Cc2cc(OC)c(OC)c(OC)c2)cc1O	inactive
COc1cc(Nc2ncc(F)c(Nc3ccc4c(n3)N(COP(=O)(O)O)C(=O)C(C)(C)O4)n2)cc(OC)c1OC	active
CC(=O)c1c(C)c2cnc(Nc3ccc(N4CCNCC4)cn3)nc2n(C2CCCC2)c1=O	active
O=C(O)c1ccc2cc(-c3ccc(O)c(C45CC6CC(CC(C6)C4)C5)c3)ccc2c1	active
CC(C)c1ccccc1Cc1cc(C(=O)Nc2ccc(S(=O)(=O)c3ccccc3C(C)(C)C)cc2)c(O)c(O)c1O	inactive
C=CC(=O)Nc1cc2c(Nc3ccc(F)c(Cl)c3)ncnc2cc1C#CC(C)(C)N1CCN(C)CC1	active
CC(C)(C)c1cnc(CSc2cnc(NC(=O)C3CCNCC3)s2)o1	active
CC[C@@]1(O)C(=O)OCc2c1cc1n(c2=O)Cc2cc3cc(O)ccc3nc2-1	active
C#Cc1cccc(Nc2ncnc3cc(OC)c(OCCCCCCC(=O)NO)cc23)c1	active
Cc1nc(N)ncc1-c1nc(N2CCOCC2)c2sc(C(C)(C)O)cc2n1	active
C=CC(=O)Nc1cccc(Oc2nc(Nc3ccc(N4CCN(C)CC4)cc3)ncc2Cl)c1	active
Cc1[nH]nc2ccc(-c3cncc(OC[C@@H](N)Cc4ccccc4)c3)cc12	active
COc1ccc2c(c1)CC[C@@H](CN(C)CC(=O)O)[C@H]2c1ccccc1	active
Cc1cnc(Nc2ccc(F)cc2Cl)nc1-c1c[nH]c(C(=O)N[C@H](CO)c2cccc(Cl)c2)c1	active
CN(c1ncccc1CNc1nc(Nc2ccc3c(c2)CC(=O)N3)ncc1C(F)(F)F)S(C)(=O)=O	active
O=C(CCCCCCNC(=O)c1cnc(N(c2ccccc2)c2ccccc2)nc1)NO	active
CC(C)c1cc(C(=O)N2Cc3ccc(CN4CCN(C)CC4)cc3C2)c(O)cc1O	active
CCCNC(=O)Nc1ccc(Oc2ncnc3cc(OC)c(OC)cc23)cc1Cl	inactive
CC=CC1=C(C(=O)O)N2C(=O)[C@H](NC(=O)[C@H](N)c3ccc(O)cc3)[C@@H]2SC1	inactive
Nc1nc(Nc2ccc(S(N)(=O)=O)cc2)nn1C(=O)c1c(F)cccc1F	active
COc1ccc(F)c(F)c1C(=O)c1cnc(NC2CCN(S(C)(=O)=O)CC2)nc1N	active
Cc1coc2c1C(=O)C(=O)c1c-2ccc2c1CCCC2(C)C	active
Cc1cccc(C=NNc2cc(N3CCOCC3)nc(OCCc3ccccn3)n2)c1	active
c1ccc2c(CCNc3ccc(Nc4ccncc4)cc3)c[nH]c2c1	active
CC(C)c1cnn2c(NCc3ccccc3)cc(N[C@@H](CO)[C@H](O)CO)nc12	active
Cn1c(CNc2ccc(C(=N)N)cc2)nc2cc(C(=O)N(CCC(=O)O)c3ccccn3)ccc21	inactive
O=C1CCC[C@@H]2[C@H]3CCC[N+]4([O-])CCC[C@@H](CN12)[C@@H]34 (some centres undefined)	inactive
CNc1nccc(-c2cccnc2Oc2cc(C(=O)Nc3cccc(C(F)(F)F)c3)ccc2C)n1	active
COc1ccc(OC)c(-c2nnc3ccc(-c4ccc(OC)c(O[C@@H]5CCOC5)c4)nn23)c1	active
